# Lookup of reported NF-kB reporter keyed by entry
# Tested on: RAW-Dual (murine macrophage reporter line)
# Assay Details: NF-kB reporter (SEAP) activity fold change vs agonist alone; higher = enhanced NF-kB activity
# Experimental Conditions: modulator concentration 10 µM; agonist: CpG ODN 1826 0.5 ug/mL
Metric: NF-kB reporter

Cc1cnc(Nc2ccc(OCCN3CCCC3)cc2)nc1Nc1cccc(S(=O)(=O)NC(C)(C)C)c1
0.769
CCOc1ccc(-c2cccc(NC(=O)c3c(F)cccc3F)c2)nn1
0.969
c1cnn(-c2ccc(N=Nc3ccc(-n4cccn4)cc3)cc2)c1
0.939
COCCN(CCOC)C(=O)Cc1csc2nc(-c3ccc(F)cc3)cn12
1.1
CN(C)CCCNc1cc(C(C)(C)C)nc2c(-c3ccccc3)cnn12
0.172
